study-system: Histone deacetylase 3 (Homo sapiens, UniProt O15379)
Sequence (O15379 whole entry): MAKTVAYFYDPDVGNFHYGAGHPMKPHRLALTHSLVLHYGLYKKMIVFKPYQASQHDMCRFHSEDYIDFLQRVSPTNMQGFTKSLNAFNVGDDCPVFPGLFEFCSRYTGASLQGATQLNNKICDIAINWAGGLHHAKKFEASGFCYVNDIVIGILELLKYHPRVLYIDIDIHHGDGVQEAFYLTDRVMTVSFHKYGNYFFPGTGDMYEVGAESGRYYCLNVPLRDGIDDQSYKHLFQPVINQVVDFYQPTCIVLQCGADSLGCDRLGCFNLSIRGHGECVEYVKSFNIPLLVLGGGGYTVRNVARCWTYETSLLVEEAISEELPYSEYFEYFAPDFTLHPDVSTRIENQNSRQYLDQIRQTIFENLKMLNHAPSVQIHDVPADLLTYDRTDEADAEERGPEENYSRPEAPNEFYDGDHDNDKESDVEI
quantity-measured: IC50 (nM)
Answer format: numeric, nM implied, no suffix.

// query Item "O=C(/C=C/c1ccc(CNc2nccc(-c3cccnc3)n2)cc1)NO" has what recorded IC50?
// result 113

###

Test system: HeLa
test-protocol: Induction of apoptosis in human HeLa cells assessed as early apoptotic cells at 5 uM after 48 hrs by annexin-V-FITC/propidium iodide staining based flow cytometry (reference value: 1.4%)
Assay type: functional
quantity-measured: Activity

Sample answers from the record:
# smiles-code, Activity
rows = [
    ("O=C(CCCCCCC(=O)Nc1ccccc1)NO", "7.84%"),
    ("O=C(/C=C/c1ccc(CNc2nccc(-c3cccnc3)n2)cc1)NO", "10.2%"),
    ("Nc1ccccc1NC(=O)c1ccc(CNc2nccc(-c3cccnc3)n2)cc1", "12.5%"),
]

Now let's try a different one.
// query Given the compound "O=C(NO)c1ccc(CNc2nccc(-c3cccnc3)n2)cc1" , what is its reported Activity?
// result 11.1%

###

Test system: HeLa
test-protocol: Induction of apoptosis in human HeLa cells assessed as early apoptotic cells at 1.25 uM after 48 hrs by annexin-V-FITC/propidium iodide staining based flow cytometry (reference value: 1.4%)
Format: functional
Activity values, listed per item
Enter your answer as a number in %; do not include the unit.

// query Notebook: pull reported Activity for HeLa, entry "O=C(NO)c1ccc(CNc2nccc(-c3cccnc3)n2)cc1"
// result 4.89

###

test-protocol: Elimination half life in po dosed patient plasma by HPLC/MS analysis
Type: ADME, organism-based
condition-summary: human, read-out: beta t1/2 (converted)
quantity-measured: half-life (h)
The answer is to be given in h; state only the numeric part.

// query For the molecule "Nc1ccccc1NC(=O)c1ccc(CNc2nccc(-c3cccnc3)n2)cc1" , what half-life is on record?
// result 9

###

Measured half-life, listed per entry.
test-protocol: Half life in mouse plasma
Assay type: ADME, cell-free
Express the result in h but write the number alone.

// solved cases for half-life follow
# smiles-code, half-life [h]
rows = [
    ("O=C(CCCCCCC(=O)Nc1ccccc1)NO", 3),
    ("O=C(/C=C/c1ccc(CNc2nccc(-c3cccnc3)n2)cc1)NO", 10),
]

// query Item under review: "Nc1ccccc1NC(=O)c1ccc(CNc2nccc(-c3cccnc3)n2)cc1" . Reported half-life?
// result 10

// query Now the same for "O=C(NO)c1ccc(CNc2nccc(-c3cccnc3)n2)cc1"
// result 12

###

test-protocol: Antiproliferative activity against human HCT116 cells assessed as reduction in cell viability after 48 hrs by MTT assay
Assay type: functional, cell-based
condition-summary: HCT-116, 48 h
quantity-measured: IC50

Example entries begin here.
# smiles-code, IC50
data = [
    ("O=C(NO)c1ccc(CNc2nccc(-c3cccnc3)n2)cc1", "< 880 nM"),
    ("O=C(/C=C/c1ccc(CNc2nccc(-c3cccnc3)n2)cc1)NO", "< 810 nM"),
]

// query Param item = "Nc1ccccc1NC(=O)c1ccc(CNc2nccc(-c3cccnc3)n2)cc1" ; retrieve measured IC50.
// result 1240 nM

###

Tested on: HeLa
test-protocol: Induction of apoptosis in human HeLa cells assessed as early apoptotic cells at 1.25 uM after 48 hrs by annexin-V-FITC/propidium iodide staining based flow cytometry (reference value: 1.4%)
Format: functional
quantity-measured: Activity (%)
Report the figure in % without appending any unit label.

Solved cases (2 shown):
# compound, study-system, obs-value
records = [
    ("O=C(/C=C/c1ccc(CNc2nccc(-c3cccnc3)n2)cc1)NO", "HeLa", 4.27),
    ("O=C(CCCCCCC(=O)Nc1ccccc1)NO [VORINOSTAT]", "HeLa", 4.1),
]

// query Query for HeLa: what Activity does the record show for Nc1ccccc1NC(=O)c1ccc(CNc2nccc(-c3cccnc3)n2)cc1 [MOCETINOSTAT] ?
// result 3.9

The values you see were collected from ChEMBL document CHEMBL3751819.
